Tested on: PXR homodimer (NR concentration 270 nM)
measurement protocol: PBM binding z-score (relative to random genomic background probes); higher = stronger binding; sequences stand for … in GC…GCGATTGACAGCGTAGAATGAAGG
Categories are assigned from the measured PBM binding z-score using these intervals: Low: < -0.05; Mid: ≥ -0.05 and < 0.7; High: ≥ 0.7

Bin? GCTATTAGTTGAAAGGGCAACAGAATGATTCTCG High

Class for CCTACTGGGCCTAGGTCATTGATCAGTCAAAGCA ? Low

Please report the category associated with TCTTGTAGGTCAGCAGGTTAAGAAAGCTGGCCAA , nothing else. Mid

Exam item: assign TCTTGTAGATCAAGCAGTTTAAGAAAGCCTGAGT to the correct category. Low

Note: place this sequence into its band. Item: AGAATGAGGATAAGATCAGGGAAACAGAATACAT Mid

Hello team, could you let me know which band the following sequence falls into: AGAACGAGGGCAATGAGTTGGTAGCACGGGTGGC High

# bin lookup: classify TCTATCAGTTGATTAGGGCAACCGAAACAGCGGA by its PBM binding z-score Low

Hello team, could you let me know which band the following sequence falls into: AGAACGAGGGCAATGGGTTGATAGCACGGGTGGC High

Pick a category. Item: TCTTGTAGATCAATAGGAGGTTAAGAAAGATCGA Mid

Please report the category associated with AGTCAAAGTTCACTAGGTAACGGAAGATTCAGCT , nothing else. High

Please classify: ATATGTAGGTTAGCTGGGGTCTTTCAGACTAGGC Mid

In plain terms, what class is GCATATAGGTACTACAAGGTGAAAGTCCGATTGT ? Low

Looking at GATACAGGGTCAGCTAGGGGCCAGAGTATGGAAA , which class would you pick? Mid

GET /class?item= AGCCAAAGTTCATCTAGGTAACGTAAGATATGCT High

Hello team, could you let me know which band the following sequence falls into: GATACAGGGTCAGCTAGAGACCAGAGTATGGAAA Mid

Please let me know in which category the item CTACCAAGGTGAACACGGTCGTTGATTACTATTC belongs. Mid

Which PBM binding z-score band matches CGTCCAAGGTCAAGGCTAGGTCAGTGAAAGCATT ? High

Form: Item = CCTACTGGGCCAAAAAGGACATTGATGCCGATAA ; Class = ? Mid

Category of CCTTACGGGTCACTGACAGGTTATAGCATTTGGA : Low
